- systemTested: Beta-1 adrenergic receptor (Cavia porcellus) (UniProt B0FL73)
- Sequence (B0FL73 1-467): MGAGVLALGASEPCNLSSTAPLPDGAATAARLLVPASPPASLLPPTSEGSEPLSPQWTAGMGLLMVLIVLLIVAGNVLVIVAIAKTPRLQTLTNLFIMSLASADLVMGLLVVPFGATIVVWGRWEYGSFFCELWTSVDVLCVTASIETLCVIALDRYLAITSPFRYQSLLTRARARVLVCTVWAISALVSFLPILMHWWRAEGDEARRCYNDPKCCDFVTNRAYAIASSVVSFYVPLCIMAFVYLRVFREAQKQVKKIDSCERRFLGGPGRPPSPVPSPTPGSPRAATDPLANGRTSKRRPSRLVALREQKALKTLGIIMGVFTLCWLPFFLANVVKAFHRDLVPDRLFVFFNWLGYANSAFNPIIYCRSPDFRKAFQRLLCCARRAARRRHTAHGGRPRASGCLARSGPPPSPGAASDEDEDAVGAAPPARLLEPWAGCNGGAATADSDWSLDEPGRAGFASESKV
- assayMethodText: Antagonistic activity against beta-1 adrenergic receptor of isolated guinea pig atria
- Assay type: functional
measuredEndpoint: pA10

In [3]: df
Out[3]:
                                   molecule  result
0  COc1ccc(OC)c(C(O)C(C)NC(C)(C)C)c1 (stereo unspecified)    3.98
1  CC(C)C(=NOCC(O)CNC(C)(C)C)C(C)C (stereo unspecified)    3.94
2  CCC(CC)=NOCC(O)CNC(C)(C)C (stereo unspecified)    5.19
3  CC(C)(C)NCC(O)CON=C1CCCCC1 (stereo unspecified)     4.3
4  CC(C)NCC(O)CON=C1CCCC1 (stereo unspecified)    3.81

Which pA10 is listed for CCCC(CCC)=NOCC(O)CNC(C)C (stereo unspecified) ?
4.13

Data credit: ChEMBL document CHEMBL1122883
